%Inh reference
- System: CDK4-cyclinD1
- particulars: concentration: 1 μM, replicates: in singlicate; n = 1;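 further: KINOMEscan kinase panel screen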
Give your result in % as a bare value.

| smiles-input | reported-measurement |
| --- | --- |
| COc1cc2ncn(-c3cc(OCc4ccncc4Br)c(C(N)=O)s3)c2cc1OC | 13 |
| CCn1c(-c2nonc2N)nc2ccccc21 | 0 |

Measured %Inh of Cn1c(=O)c(F)c(Nc2ccc(I)cc2F)c2c(=O)n(OC[C@H](O)CO)cnc21 : 1

Measured %Inh of CC(C)(C)c1ccc(C(=O)Nc2cn3cc(-c4ccccc4)ccc3n2)cc1 : 14

Measured %Inh of CCC(=O)c1c(-c2ccccc2)c2cc(Cl)ccc2c(=O)n1Cc1ccc(C(=O)O)cc1 : 0

Measured %Inh of COc1cccc(-n2cnc3c(N)ncnc32)c1 : 37

Measured %Inh of CCCC(=O)Nc1n[nH]c2ncc(-c3cccc4ccccc34)cc12 : 0

Measured %Inh of Nc1ncnc2c1ncn2-c1cccc(F)c1 : 27

Measured %Inh of COC(=O)c1c(-c2ccccc2)c2cc(Br)ccc2c(=O)n1Cc1ccc(NC(=O)CCC(=O)O)cc1 : 0

Measured %Inh of COc1cccc(C2=C(N(C)c3ccccc3)C(=O)NC2=O)c1 : 2

====

%Inh reference
- System: CAMK2G
- particulars: concentration: 1 μM, replicates: in singlicate; n = 1
Give your result in % as a bare value.

| compound | units | %Inh |
| --- | --- | --- |
| COc1cc2nccc(Nc3cccc(Oc4ccccc4)c3)c2cc1OC.Cl | % | 19 |
| Cl.NS(=O)(=O)c1cccc(Nc2cc(-c3ccc(F)cc3)n[nH]2)c1 | % | 0 |
| Cc1nn2c(=O)cc(N3CCOCC3)nc2n1Cc1cccc(Cl)c1Cl | % | 10 |
| CN1C(=O)C(Nc2ccccc2)=C(c2ccccc2)C1=O | % | 0 |
| Cc1ccc(Oc2ccc(Nc3ncnc4cc[nH]c34)cc2C)cn1 | % | 15 |

Next compound, please.
Measured %Inh of O=C(Nc1ccc2c(c1)OCO2)NC1CCN(c2ccnc(NCc3ccc(F)cc3)n2)CC1 : 22

====

%Inh reference
- Tested on: EPHA5
- particulars: concentration: 1 μM, replicates: in singlicate; n = 1
Give your result in % as a bare value.

| smiles-input | system | reported-measurement |
| --- | --- | --- |
| Cc1ccccc1COc1cc(-n2cnc3cc(Cl)ccc32)sc1C(N)=O | EPHA5 | 0 |
| CCc1ccc(-c2ccc3c(c2)-c2nn(C)cc2S(=O)(=O)N3C)cc1 | EPHA5 | 0 |
| CCCNC(=O)Nc1ccc(Oc2ncnc3ccn(C)c23)cc1 | EPHA5 | 12 |
| Cc1ccc(Oc2ccc(Nc3ncnc4cc[nH]c34)cc2C)cn1 | EPHA5 | 16 |

Next compound, please.
Measured %Inh of COc1cc(Nc2ccnc3ccc(C(F)(F)F)cc23)cc(OC)c1OC : 2

====

%Inh reference
- Tested on: MTOR
- particulars: concentration: 1 μM, replicates: in singlicate; n = 1
Give your result in % as a bare value.

Examples with their reported %Inh follow.
| compound | reported-measurement |
| --- | --- |
| COc1ccc(Nc2nccc(N3CCC(NS(=O)(=O)c4ccc(NC(C)=O)cc4)C3)n2)cc1 (stereo not drawn) [GSK1379729] | 43 |
| COc1cc(Nc2nccc(N3CCC(NC(=O)C4COc5ccccc5O4)C3)n2)cc(OC)c1OC (stereo not drawn) [GSK1379761] | 34 |
| CCn1c(-c2ccoc2)nc2cnccc21 [SB-733887] | 29 |
| COc1ccc(-c2cc3c(C)nc(N)nc3n([C@H]3CC[C@H](O)CC3)c2=O)cn1 | 99 |
| CCCC(=O)Nc1n[nH]c2ncc(-c3cccc4ccccc34)cc12 [SB-642057] | 17 |

Measured %Inh of O=C(NCCNc1ccnc(Nc2ccc(F)cc2)n1)Nc1ccc2c(c1)OCO2 [GSK1379882] : 11

Measured %Inh of Nc1n[nH]c2nnc(-c3ccccc3)c(-c3ccccc3)c12 [GW554060] : 12

Measured %Inh of OCCCNc1nccc(-c2c(-c3cccc(C(F)(F)F)c3)nn3cc(C(F)(F)F)ccc23)n1 [GW630813] : 1

Measured %Inh of Nc1n[nH]c2ncc(-c3ccccc3)cc12 [SB-517081] : 7

====

- System: PKMYT1
- particulars: concentration: 1 μM, replicates: in singlicate; n = 1
readout-kind: %Inh (%)
Give your result in % as a bare value.

| compound | system | %Inh / % |
| --- | --- | --- |
| Cc1ccccc1COc1cc(-n2cnc3cc(Cl)ccc32)sc1C(N)=O [GW813349] | PKMYT1 | 0 |
| Cl.NS(=O)(=O)c1cccc(Nc2cc(-c3ccc(F)cc3)n[nH]2)c1 [GW824645] | PKMYT1 | 0 |

Measured %Inh of COc1cc(Nc2ccnc3ccc(C(F)(F)F)cc23)cc(OC)c1OC [GW577382] : 6

Measured %Inh of CN1C(=O)C(Nc2ccccc2)=C(c2ccccc2)C1=O [SB-300079] : 2

Measured %Inh of COC(=O)c1c(-c2ccccc2)c2cc(C)ccc2c(=O)n1Cc1ccccc1 : 13

Measured %Inh of COc1ccc(-n2cnc3c(N)ncnc32)cc1 [SKF-97236] : 17

Measured %Inh of CCCNC(=O)Nc1ccc(Oc2ncnc3ccn(C)c23)cc1 : 0

Measured %Inh of O=C(Nc1ccc2c(c1)OCO2)NC1CCN(c2ccnc(NCc3ccc(F)cc3)n2)CC1 [GSK1379859] : 0

Measured %Inh of O=C(NCc1cccs1)c1cc(C(=O)c2c(Cl)cccc2Cl)c[nH]1 [GW823670] : 0

Measured %Inh of CCC(=O)c1c(-c2ccccc2)c2cc(Cl)ccc2c(=O)n1Cc1cc(S(C)(=O)=O)n(CCC(C)(C)O)n1 : 0

====

- Tested on: RPS6KA4(Kin.Dom.1-N-terminal)
- particulars: concentration: 1 μM, replicates: in singlicate; n = 1
%Inh reference
Answers without a unit are incomplete; give the number and then its unit.

| compound | system | %Inh |
| --- | --- | --- |
| Nc1ncnc2c1ncn2-c1cccc(F)c1 | RPS6KA4(Kin.Dom.1-N-terminal) | 0% |
| COc1cc(Nc2ccnc3ccc(C(F)(F)F)cc23)cc(OC)c1OC | RPS6KA4(Kin.Dom.1-N-terminal) | 10% |
| Nc1nc(N)c2nc(-c3ccccc3)[nH]c2n1 | RPS6KA4(Kin.Dom.1-N-terminal) | 11% |

Measured %Inh of Cc1ccc(Oc2ccc(Nc3ncnc4cc[nH]c34)cc2C)cn1 : 0%

Measured %Inh of Cc1ccc(-c2ccc3c(ccc4sc5c(c43)NC[C@@H](C)N=C5N(C)C)n2)cn1 : 0%

Measured %Inh of O=C(Nc1n[nH]c2nc(-c3ccccc3)c(Cl)cc12)C1CC1 : 0%

Measured %Inh of CCn1c(-c2ccoc2)nc2cnccc21 : 0%

====

- Test system: MLK3
- particulars: concentration: 1 μM, replicates: in singlicate; n = 1
%Inh reference
Give your result in % as a bare value.

Examples with their reported %Inh follow.
| molecule | reported-measurement |
| --- | --- |
| Nc1ncnc2c1ncn2-c1cccc2ccccc12 [SKF-97184] | 0 |
| CCC(=O)c1c(-c2ccccc2)c2cc(Cl)ccc2c(=O)n1Cc1ccc(C(=O)O)cc1 | 0 |
| Cn1c(=O)c(F)c(Nc2ccc(I)cc2F)c2c(=O)n(OC[C@H](O)CO)cnc21 | 9 |
| Nc1ncnc2c1ncn2-c1cccc(F)c1 [SKF-97560] | 10 |
| CCc1ccc(-c2ccc3c(c2)-c2nn(C)cc2S(=O)(=O)N3C)cc1 | 11 |
| CCC(=O)c1c(-c2ccccc2)c2cc(Cl)ccc2c(=O)n1Cc1cc(S(C)(=O)=O)n(CC(F)F)n1 | 0 |
| COC(=O)c1c(-c2ccccc2)c2cc(Br)ccc2c(=O)n1Cc1ccc(S(C)(=O)=O)cc1 | 0 |
| O=C(NCc1cccs1)c1cc(C(=O)c2c(Cl)cccc2Cl)c[nH]1 [GW823670] | 0 |

Measured %Inh of COC(=O)c1c(-c2ccccc2)c2cc(C)ccc2c(=O)n1Cc1ccccc1 : 0

====

- Tested on: BLK
- particulars: concentration: 1 μM, replicates: in singlicate; n = 1
readout-kind: %Inh (%)
Give your result in % as a bare value.

Examples with their reported %Inh follow.
| compound | reported-measurement |
| --- | --- |
| COc1cc2ncn(-c3cc(OCCCc4ccccc4)c(C(N)=O)s3)c2cc1OC [GSK205189] | 12 |
| CCn1c(-c2nonc2N)nc2ccccc21 [SB-693162/GW549034] | 21 |
| CCC(=O)c1c(-c2ccccc2)c2cc(Cl)ccc2c(=O)n1Cc1cc(C(=O)NC2CC2)n(C)n1 | 0 |

Measured %Inh of Fc1cccc(CSc2nnc(-c3ccc4c(c3)CCO4)o2)c1 : 0

Measured %Inh of O=C(NCCNc1ccnc(Nc2ccc(F)cc2)n1)Nc1ccc2c(c1)OCO2 [GSK1379882] : 7

Measured %Inh of CCc1ccc(-c2ccc3c(c2)-c2nn(C)cc2S(=O)(=O)N3C)cc1 : 0

Measured %Inh of Nc1ncnc2c1ncn2-c1ccc(Cl)cc1 [AH2635] : 24

Measured %Inh of CCS(=O)(=O)c1ccc(OC)c(Nc2ncc(-c3ccc(F)cc3)o2)c1.Cl [GW591947] : 41

Measured %Inh of O=C(Nc1n[nH]c2cc(-c3ccccc3F)ccc12)C1CC1 [SB-733371] : 0
